system: IGROV1 ovarian; experiment: NCI tumour cell line growth inhibition, 48 h
Measured TGI accompanies every entry in the list below.

[
  {
    "compound": "Nc1nc(N)c2ncn(CCOC(c3ccccc3)P(=O)(O)O)c2n1 (stereo not given)",
    "TGI": "> 100 µM"
  },
  {
    "compound": "COc1ccc(-c2csc(Cc3nc4c(Br)cc(Br)cc4c(=O)n3-c3ccc(OC)cc3)n2)cc1",
    "TGI": "> 100 µM"
  },
  {
    "compound": "Cc1cn(Cc2cccc(C3=NCCCN3)c2)c(=O)n(Cc2cccc(C3=NCCCN3)c2)c1=O",
    "TGI": "> 100 µM"
  },
  {
    "compound": "CN(C)C(=S)C(Cl)(c1ccccc1)c1ccccc1",
    "TGI": "> 100 µM"
  },
  {
    "compound": "NC(Cc1c[nH]c2ccc([N+](=O)[O-])cc12)C(=O)O (stereo not given)",
    "TGI": "> 100 µM"
  },
  {
    "compound": "COC(=O)CC(C(C(=O)OC)C(=O)OC)N1C(=O)OC(c2ccccc2)C1c1ccccc1 (stereo not given)",
    "TGI": "> 100 µM"
  },
  {
    "compound": "CO[C@]12S[C@@H]3CCCC[C@@]31C(C)(C)C(=O)N2c1ccccc1",
    "TGI": "> 100 µM"
  },
  {
    "compound": "O=C(O)CCCNc1ncc2c(n1)-c1ccccc1OC2",
    "TGI": "> 100 µM"
  },
  {
    "compound": "CCOC(=O)/C(C(=S)NCc1ccccc1)=C(/N)N1CCCC1",
    "TGI": "> 100 µM"
  },
  {
    "compound": "Nc1nc2c(-c3ccc([N+](=O)[O-])cc3)nnn2c2ccccc12",
    "TGI": "> 100 µM"
  }
]

* * *

tested on: OVCAR-8 ovarian; experiment: NCI tumour cell line growth inhibition, 48 h

[
  {
    "compound.structure": "CCOC(=O)c1c(C)nc2c(c1N)/C(=C/c1ccccn1)C(=O)N2Cc1ccccc1",
    "GI50": "1.65 µM"
  },
  {
    "compound.structure": "Cc1nc2sc3c(N)ncnc3c2c(C)c1C",
    "GI50": "> 25 µM"
  },
  {
    "compound.structure": "O=C(/C=C/c1ccccn1)c1ccc(OCc2nnc(-c3ccc(Cl)cc3)o2)cc1",
    "GI50": "2.48 µM"
  }
]

* * *

Measured TGI accompanies every entry in the list below.
system: NCI-H226 lung; experiment: NCI tumour cell line growth inhibition, 48 h
readout.name: TGI (µM)

[
  {
    "molecule": "COC(=O)c1c(O)ccc2c1c1c(n2Cc2ccccc2OC)C(=O)c2ccccc2C1=O",
    "tested.target": "NCI-H226 lung",
    "readout.name": "TGI",
    "relation.qualifier": "=",
    "value.measured": 39.3
  },
  {
    "molecule": "O=c1oc2ccccc2c(O)c1C(c1ccc(-c2ccccc2)cc1)c1c(O)c2ccccc2oc1=O",
    "tested.target": "NCI-H226 lung",
    "readout.name": "TGI",
    "relation.qualifier": "=",
    "value.measured": 69
  },
  {
    "molecule": "Cc1nc2sc3c(N)ncnc3c2c(C)c1C",
    "tested.target": "NCI-H226 lung",
    "readout.name": "TGI",
    "relation.qualifier": ">",
    "value.measured": 25
  },
  {
    "molecule": "CC[C@H](C)[C@H](NC(=O)[C@H]1CCCCN1C)C(=O)N(C)[C@H](C[C@@H](OC(C)=O)c1cccc(C(=O)N[C@@H](Cc2ccccc2)C[C@H](C)C(=O)O)n1)C(C)C",
    "tested.target": "NCI-H226 lung",
    "readout.name": "TGI",
    "relation.qualifier": ">",
    "value.measured": 25
  },
  {
    "molecule": "CCOC(=O)c1c(N2CCCC2)[nH]c(=O)c(C(c2ccc(Cl)c([N+](=O)[O-])c2)c2c(O)c(C(=O)OCC)c(N3CCCC3)[nH]c2=O)c1O",
    "tested.target": "NCI-H226 lung",
    "readout.name": "TGI",
    "relation.qualifier": ">",
    "value.measured": 100
  },
  {
    "molecule": "CCC(C)C1=C(O)[N+]2([O-])Oc3ccc(C4=C(O)C(=O)C(c5ccc(O)cc5)=C(O)C4=O)cc3OC2(C(C)CC)C(=O)N1O (stereo not drawn)",
    "tested.target": "NCI-H226 lung",
    "readout.name": "TGI",
    "relation.qualifier": ">",
    "value.measured": 100
  },
  {
    "molecule": "c1ccc2c(c1)c1c3c(c4c(n32)=NCCN4)CCC1",
    "tested.target": "NCI-H226 lung",
    "readout.name": "TGI",
    "relation.qualifier": "=",
    "value.measured": 80.9
  },
  {
    "molecule": "CCCCOc1ccc(/C=N/Nc2cc(C)nc3ccc(Br)cc23)cc1",
    "tested.target": "NCI-H226 lung",
    "readout.name": "TGI",
    "relation.qualifier": "=",
    "value.measured": 3.82
  }
]
